Tested on: A549
Experiment: NCI tumour cell line growth inhibition, 48 h
Active and inactive are the calls of the source. Rule as the data show it: active = GI50 up to about 1.1 µM and inactive = higher.
Give measured GI50 for each item. Keep answers brief.

GI50 in this record for Clc1ccc(C[P+](c2ccccc2)(c2ccccc2)c2ccccc2)c(Cl)c1 : 4.47 µM (inactive)

GI50 in this record for Cc1cc(C)nc(NS(=O)(=O)c2ccc(Nc3nncc(=O)n3N)cc2)n1 : 34.8 µM (inactive)

GI50 in this record for CN(C)CCONC(=O)C12CC3CC(CC(C3)C1)C2 : > 100 µM (inactive)

* * *

Test system: DU-145
Assay: NCI tumour cell line growth inhibition, 48 h
Calls of active or inactive are those of the source. Rule as the data show it: active = GI50 up to about 1.1 µM and inactive = higher. Square brackets hold non-standard residues; d marks the D form. Peptide text beside a SMILES is read from it. * marks the point of attachment. ξ: configuration not given here. NMeY = CN[C@@H](Cc1ccc(O)cc1)C(=O)O; Cbz = O=C(OCc1ccccc1)*; ξA = CC(N)C(=O)O
One label from this list, please: active, inactive

[in] Record lookup: outcome of this test for COc1cc2c[n+](C)c3c4ccccc4ccc3c2cc1OC ?
[out] inactive

[in] Record lookup: outcome of this test for C(=N\C12CC3CC(CC(C3)C1)C2)/C1CCCCC1 ?
[out] inactive

[in] Record lookup: outcome of this test for O=P1(NCCCl)OCCC(OO)N1CCCl (configuration not stated) ?
[out] inactive

[in] Record lookup: outcome of this test for O=C(N/N=C\c1ccc([N+](=O)[O-])cc1)Nc1ccc2ccccc2c1 ?
[out] inactive

[in] Record lookup: outcome of this test for C=C(CC)C[C@@H]1C[C@]2(C(=O)OC)c3[nH]c4ccccc4c3CCN2C1=O ?
[out] inactive

[in] Record lookup: outcome of this test for CS(=O)(=O)O.[Ag] ?
[out] inactive

[in] Record lookup: outcome of this test for CC(=O)c1ccc2c(c1)C(=O)c1sc(C(C)=O)cc1C2=O ?
[out] active

[in] Record lookup: outcome of this test for CCN(CC)Cc1cc(Nc2c3ccccc3nc3c2[nH]c2ccccc23)cc(CN(CC)CC)c1O ?
[out] inactive

[in] Record lookup: outcome of this test for CC(C)c1[nH]nc(C(N)=O)c1/N=N/N(C)C ?
[out] inactive

[in] Record lookup: outcome of this test for CCSc1nc(-c2cccs2)nc2ccc(I)cc12 ?
[out] inactive

[in] Record lookup: outcome of this test for COc1cc(-c2cn(S(=O)(=O)c3ccc(C)cc3)c3ccccc23)nc(-c2cn(S(=O)(=O)c3ccc(C)cc3)c3ccccc23)n1 ?
[out] active

[in] Record lookup: outcome of this test for O/N=C(\CC(O)(C(F)(F)F)C(F)(F)F)c1cccc(Cl)c1 ?
[out] inactive

[in] Record lookup: outcome of this test for COc1ccc(C[C@@H](C(=O)N[C@@H](C)C(N)=O)N(C)C(=O)[C@@H]2CCCN2C(=O)[C@H](CC(C)C)NC(=O)C(C)NC(=O)OCc2ccccc2)cc1 (some centres not stated) (Cbz-[ξA]LP[NMeY](Me)A-NH2) ?
[out] inactive

[in] Record lookup: outcome of this test for CC(O)c1cc2c(s1)C(=O)c1sccc1C2=O (configuration not stated) ?
[out] active

[in] Record lookup: outcome of this test for COC(=O)[C@@H]1C[C@@]23CCCN4CC[C@@]5(c6cccc(OC)c6N(C=O)[C@]15CC2)[C@@H]43 ?
[out] inactive

[in] Record lookup: outcome of this test for CC(C)=CCC/C(=C/CC/C(=C\CCc1ccoc1)C(=O)O)C(=O)O ?
[out] inactive

[in] Record lookup: outcome of this test for CC1=CC(c2ccccc2)OP1(=O)c1ccccc1 (configuration not stated) ?
[out] inactive

[in] Record lookup: outcome of this test for Cc1cccc2oc3c(c(=O)c12)CC(O)C(C)(C)O3 (configuration not stated) ?
[out] inactive

[in] Record lookup: outcome of this test for C=C1CC(Cn2cc(Br)c(=O)[nH]c2=O)(c2ccc(-c3ccccc3)cc2)OC1=O (configuration not stated) ?
[out] inactive

[in] Record lookup: outcome of this test for Cc1cc(N(CCC#N)S(=O)(=O)c2ccccc2)ccc1/C=N/c1ccc(C(=O)O)cc1 ?
[out] inactive

[in] Record lookup: outcome of this test for CC(=O)CSCc1ccccn1 ?
[out] inactive

[in] Record lookup: outcome of this test for C=C1C(=O)OC2CC(C)C(C(CC(C)=O)OC(C)=O)=CCC12 (configuration not stated) ?
[out] inactive

[in] Record lookup: outcome of this test for COc1ccc(-c2nc(-c3ccc(OC)cc3)n(-c3ccccc3)n2)cc1 ?
[out] inactive

[in] Record lookup: outcome of this test for ClCCCc1ccccc1C1=NCCc2ccccc21 ?
[out] inactive

[in] Record lookup: outcome of this test for COc1cc(/C=C/c2nc(N)nnc2C)cc(OC)c1OC ?
[out] inactive

[in] Record lookup: outcome of this test for CC(=O)/C=C1\Nc2ccc([N+](=O)[O-])cc2N\C1=C/C(C)=O ?
[out] inactive

[in] Record lookup: outcome of this test for CC(=O)OC1C[C@@H](C)C2(C[C@H](O)c3ccoc3)C(=O)OC[C@]13C2CCC(O)C31CO1 (some centres not stated) ?
[out] inactive

[in] Record lookup: outcome of this test for SC1=NC2=C(CSC/C2=C\c2ccccc2)C(c2ccccc2)N1 (configuration not stated) ?
[out] inactive

[in] Record lookup: outcome of this test for CC(C)(C)NC(=O)C12C3C4C1C1C2C3C41C(=O)NC(C)(C)C (configuration not stated) ?
[out] inactive

[in] Record lookup: outcome of this test for COC(=O)C1=C(O)C(C(=O)OC)[C@]2(O)[C@H](C(=O)OC)[C@H]1C[C@@H](c1ccc(O)cc1)[C@H]2C(=O)OC (some centres not stated) ?
[out] inactive

[in] Record lookup: outcome of this test for COC(=O)c1c(C)cccc1/C=C1/Cc2c(C)cccc2C1=O ?
[out] inactive

[in] Record lookup: outcome of this test for CC(C)C(C/C=C1\CC(CO)(COC(=O)C(C)(C)C)OC1=O)C(C)C (configuration not stated) ?
[out] inactive

* * *

Test system: EKVX
Test: NCI tumour cell line growth inhibition, 48 h
Calls of active or inactive are those of the source. No stated cut-off is given here; in the data, active = GI50 up to about 1.1 µM and inactive = higher. Positions of bridges follow the written chain, without caps; N, C: chain ends. Residues, ends and D or L forms follow the SMILES beside them.
quantity-measured: GI50

Item Nc1cc(N2CCOCC2)nc(=O)n1-c1ccccc1 was tested on EKVX; the reported GI50 is > 100 µM (inactive)

Item Cc1cc2c(=O)cc(-c3ccc(Cl)cc3)oc2c(C(=O)O)c1C was tested on EKVX; the reported GI50 is > 100 µM (inactive)

Item N#CNc1nc(N)c(-c2ccc(Cl)cc2)c(C(=O)Nc2nccs2)n1 was tested on EKVX; the reported GI50 is > 100 µM (inactive)

Item COc1cc2c(cc1OC)C1Cc3cc(OC)c(OC)cc3C(C2)N1C was tested on EKVX; the reported GI50 is > 100 µM (inactive)

Item COC(=O)C1CCC(=O)NCCCCC(NC(=O)C(N)CC(=O)O)C(=O)N1 (stereo not drawn) (H-Asp-Lys-Glu-OMe; lactam 2-3; configuration not given here) was tested on EKVX; the reported GI50 is > 100 µM (inactive)

Item O=C(/C=C/c1ccco1)CC(=O)/C=C/c1ccco1 was tested on EKVX; the reported GI50 is 20.5 µM (inactive)

Item Cc1cc(C)nc(NS(=O)(=O)c2ccc(Nc3nncc(=O)n3N)cc2)n1 was tested on EKVX; the reported GI50 is 23.1 µM (inactive)

Item O=C=C=P(c1ccccc1)(c1ccccc1)c1ccccc1 was tested on EKVX; the reported GI50 is 46.7 µM (inactive)

Item C=CCOC(=O)C[C@H](NC(=O)[C@H](Cc1ccc(O)cc1)NCC(F)(F)F)C(=O)OCC=C was tested on EKVX; the reported GI50 is 25.5 µM (inactive)

Item COc1cccc(NC(=O)CC(=O)N2N=C(N3c4ccccc4Sc4ccccc43)CC2c2ccccc2)c1 (stereo unspecified) was tested on EKVX; the reported GI50 is > 100 µM (inactive)

Item Cc1cc(N(CCC#N)CCC#N)ccc1/N=N/c1ccc(S(N)(=O)=O)cc1 was tested on EKVX; the reported GI50 is > 100 µM (inactive)

Item Cc1ccc([S@+]([O-])c2occc2C=O)cc1 was tested on EKVX; the reported GI50 is 19.8 µM (inactive)

Item CCOC(=O)NC(Nc1ccc(Cl)cn1)(C(F)(F)F)C(F)(F)F was tested on EKVX; the reported GI50 is > 100 µM (inactive)

Item CNC(=O)N1CN(c2ccccc2)C2(CCN(Cc3ccccc3)CC2)C1=O was tested on EKVX; the reported GI50 is 74.6 µM (inactive)

Item COc1ccc(OC)c(/N=C/c2cc(OC)c(OC)c(OC)c2)c1 was tested on EKVX; the reported GI50 is > 52.6 µM (inactive)

Item OCCN(CCO)CCn1cnc2c(NCc3ccccc3)ncnc21 was tested on EKVX; the reported GI50 is > 100 µM (inactive)
